So I've got a bunch of binders here, and I need their pKd values.
target.under.test: recombinant human SIRPα-His V8 (human, UniProt P78324 31-370)
Sequence (P78324 other isoform, or with tags, fused parts or gaps): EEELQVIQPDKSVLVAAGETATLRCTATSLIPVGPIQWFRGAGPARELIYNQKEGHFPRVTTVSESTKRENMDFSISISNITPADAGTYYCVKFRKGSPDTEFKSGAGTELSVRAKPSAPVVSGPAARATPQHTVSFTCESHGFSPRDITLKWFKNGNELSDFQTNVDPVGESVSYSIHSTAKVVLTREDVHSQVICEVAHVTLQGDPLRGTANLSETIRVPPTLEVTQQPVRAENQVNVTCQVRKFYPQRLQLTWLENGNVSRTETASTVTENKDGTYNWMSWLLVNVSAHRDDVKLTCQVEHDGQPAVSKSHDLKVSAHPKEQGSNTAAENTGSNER
assay.procedure: Biacore
A value of pKd is the negative decimal logarithm of a concentration given in moles per litre.

Record summary for 53.21A9.B11 (antibody, V domains shown) VH: QVQLQESGPGLVKPSETLSLTCTVSGGSVSSGRYYWSWIRQPPGKGLEWIGYIYYSGSTNYNPSLKSRVTISVDTSKNQFSLKLTSVTAADTAVYYCARAYDWNYFFDYWGQGTLVTVSS VL: DIVMTQSPLSLPVTPGEPASISCRSSQSLLYSNGYNYLEWYLQKPGQSPQLLIYLGSNRASGVPDRFSGSGSGTDFTLQISRVEAEDVGVYYCMQGLQTPITFGQGTRLEIK : reported pKd = 7.21

Query 56.16A1.H11 (antibody, V domains shown) VH: EVQLVESGGGLVQPGRSMKLSCAASGFIFTNYDMAWVRQAPTKGLEWVASISYGGSRIYYRDSVKGRFTISRDDAKSTLYLQMDSLRSEDTATYYCTTDYGYNPSYYWYFDFWGPGTMVTVSS VL: DIQMTQTPSSMPASLGERVTISCRASQGISNYLNWYQQKPDGTIKPLIYYTSNLQSGVPSRFSGSGSGTDYSLTISSLEPEDFAMYYCQQYDSSPYTFGAGTKLELKR yields pKd of 9.47

// 54.8A5.A5 (antibody, V domains shown) VH: EVQLVESGGDLIQPGGSLRLSCAASGFSFSSYDMHWVRQTTGKGLEWVSAIGTAGDTYYPGSVKGRFTISRENAKNSLYLQMNSLRAGDTAVYYCARGGNWDDAFDIWGQGTVVTVSS VL: DIQMTQSPSSLSASVGDRVTITCRASQDINNYLAWFQQKPGRAPKSLIFTASRLQSGVPSKFSGSGSGTDFSLTISSLQPEDFATYYCQQYTFYPYTFGQGTKLEIK : pKd value = 8.98
